Target: Nluc-Y1R(Q291) (Homo sapiens, UniProt P25929)
Sequence (P25929 whole entry): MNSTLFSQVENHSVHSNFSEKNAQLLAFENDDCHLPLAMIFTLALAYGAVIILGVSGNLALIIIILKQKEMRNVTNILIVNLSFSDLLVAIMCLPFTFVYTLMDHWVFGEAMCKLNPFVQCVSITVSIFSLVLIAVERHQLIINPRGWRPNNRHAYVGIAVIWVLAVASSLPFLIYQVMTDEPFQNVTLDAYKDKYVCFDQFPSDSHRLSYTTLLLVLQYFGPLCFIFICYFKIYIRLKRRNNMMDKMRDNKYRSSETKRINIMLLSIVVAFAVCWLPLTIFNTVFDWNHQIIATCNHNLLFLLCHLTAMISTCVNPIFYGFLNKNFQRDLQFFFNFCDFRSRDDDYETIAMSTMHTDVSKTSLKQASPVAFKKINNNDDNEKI
Assay: BRET saturation binding at intact HEK293T cells
Details: value used for Cheng–Prusoff, read-out: Kd
pKd: −log10 of the molar value.

smiles text | pKd
CCC(=O)NCCNC(=O)N=C(N)NCCC[C@@H](NC(=O)[C@@H](c1ccccc1)c1cccc(OCCCC[n+]2c(C)cc(/C=C/C=C/c3ccc(N(C)C)cc3)cc2C)c1)C(=O)NCc1ccc(O)cc1 | 9.54

---

Target: Nluc-M1R(G176) (Homo sapiens, UniProt P11229)
Sequence (P11229 whole entry): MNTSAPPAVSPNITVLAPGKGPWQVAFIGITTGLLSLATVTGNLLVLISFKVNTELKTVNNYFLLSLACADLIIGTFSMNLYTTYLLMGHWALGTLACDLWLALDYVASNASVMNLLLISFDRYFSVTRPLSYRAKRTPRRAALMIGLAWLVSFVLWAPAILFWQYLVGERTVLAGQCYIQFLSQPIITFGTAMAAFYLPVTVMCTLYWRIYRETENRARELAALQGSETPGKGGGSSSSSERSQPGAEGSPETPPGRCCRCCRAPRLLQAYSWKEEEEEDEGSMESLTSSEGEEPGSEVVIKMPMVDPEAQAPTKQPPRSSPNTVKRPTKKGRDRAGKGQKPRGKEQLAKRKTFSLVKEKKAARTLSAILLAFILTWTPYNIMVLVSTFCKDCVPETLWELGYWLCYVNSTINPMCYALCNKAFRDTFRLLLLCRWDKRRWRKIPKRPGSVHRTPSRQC
pKi: −log10 of the molar value.

compound | pKi
O=C1CCCN1CC#CCN1CCCC1 [oxotremorine] | 6.00
